Each recorded value in this set is attributed to patent EP2682119A1.

Target: human 5-HT transporter (hSERT) (Homo sapiens, UniProt P31645)
Construct: expressed in transfected cells; host or cells: HEK-293 MSR cells (Invitrogen), plasmid pcDNA3.1-hSERT
Sequence (P31645 whole entry): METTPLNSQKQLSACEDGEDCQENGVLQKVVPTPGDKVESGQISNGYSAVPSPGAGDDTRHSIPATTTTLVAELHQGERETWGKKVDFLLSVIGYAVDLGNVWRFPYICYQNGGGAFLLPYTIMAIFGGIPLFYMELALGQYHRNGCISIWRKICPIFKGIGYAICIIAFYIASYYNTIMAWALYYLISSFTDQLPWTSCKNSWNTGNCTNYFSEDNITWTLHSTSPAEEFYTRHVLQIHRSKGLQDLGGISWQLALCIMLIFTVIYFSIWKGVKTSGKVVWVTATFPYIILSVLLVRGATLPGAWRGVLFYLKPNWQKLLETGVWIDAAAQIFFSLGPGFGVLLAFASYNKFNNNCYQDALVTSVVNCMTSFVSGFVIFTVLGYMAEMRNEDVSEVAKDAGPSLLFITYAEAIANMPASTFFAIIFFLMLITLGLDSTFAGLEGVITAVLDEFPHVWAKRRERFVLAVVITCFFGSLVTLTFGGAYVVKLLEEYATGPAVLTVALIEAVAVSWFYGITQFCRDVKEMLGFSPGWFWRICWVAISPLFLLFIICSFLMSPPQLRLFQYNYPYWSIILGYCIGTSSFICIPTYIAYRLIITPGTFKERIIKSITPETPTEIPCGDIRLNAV
Experiment: 5-HT reuptake inhibition, [3H]5-HT uptake in transfected HEK-293 MSR cells
Type: cell-based
Details: serotonin reuptake inhibition
Where a name gives a salt, the structure may show the parent alone.
reportedEndpoint: pKi
pKi here is simply -log10 of the concentration when that concentration is written in mol/L.

compound: N#CSCCCc1c[nH]c2ccc(F)cc12 [Compound 34]
reportedEndpoint: pKi
experimentalResult: 6.67

compound: NC(=O)CCCc1c[nH]c2ccc(F)cc12 [Compound 56, 3-(4-(Butylamido))-5-fluoro-1H-indole]
reportedEndpoint: pKi
experimentalResult: 6.20

compound: CCN(CCc1c[nH]c2ccc(F)cc12)S(C)(=O)=O [Compound 35]
reportedEndpoint: pKi
experimentalResult: 6.76

compound: NCCSCCc1c[nH]c2c(F)cccc12 [Compound 43, oxalate]
reportedEndpoint: pKi
experimentalResult: 7.60

Kindly review the next compound as well.
Incoming: GET /values?readout=pKi&system=human 5-HT transporter (hSERT) (Homo sapiens, UniProt P31645)&item= ONCCCc1c[nH]c2ccc(F)cc12 [Compound 45]
Outgoing: 7.70

* * *

Entries and their IC50 values follow.
Biological target: LDL oxidation carried out by MPO (Homo sapiens)
Construct: made in house
Sequence (P05164 49-745): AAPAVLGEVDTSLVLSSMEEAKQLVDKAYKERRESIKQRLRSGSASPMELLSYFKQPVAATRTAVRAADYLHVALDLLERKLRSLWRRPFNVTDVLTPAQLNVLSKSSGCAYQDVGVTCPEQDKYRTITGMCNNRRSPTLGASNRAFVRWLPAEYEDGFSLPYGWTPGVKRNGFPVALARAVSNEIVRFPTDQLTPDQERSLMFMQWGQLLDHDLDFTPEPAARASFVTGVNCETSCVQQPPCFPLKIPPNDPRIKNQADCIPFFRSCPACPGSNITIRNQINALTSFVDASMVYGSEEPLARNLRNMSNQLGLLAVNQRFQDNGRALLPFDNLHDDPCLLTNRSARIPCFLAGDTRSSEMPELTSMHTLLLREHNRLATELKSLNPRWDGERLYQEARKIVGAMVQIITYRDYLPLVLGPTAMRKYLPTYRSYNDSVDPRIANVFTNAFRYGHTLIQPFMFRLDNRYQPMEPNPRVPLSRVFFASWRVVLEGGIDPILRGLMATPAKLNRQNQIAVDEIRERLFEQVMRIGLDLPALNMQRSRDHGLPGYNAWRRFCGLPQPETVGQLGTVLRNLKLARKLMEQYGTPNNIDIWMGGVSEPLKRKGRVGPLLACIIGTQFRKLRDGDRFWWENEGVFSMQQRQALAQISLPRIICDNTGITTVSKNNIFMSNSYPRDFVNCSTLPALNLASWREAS
Test: Inhibition of LDL oxidation by MPO, ELISA with Mab AG9
Assay type: biochemical
Conditions: inhibition of LDL oxidation, Table 2; read-out: IC50
Counter-ions that a name gives are not always drawn.
Answer in nM, number only, no unit symbol.

Completed entries (count: 6):
compound: CCN(CCCc1c[nH]c2ccc(F)cc12)S(C)(=O)=O
measurementTarget: LDL oxidation carried out by MPO (Homo sapiens)
unitAbbreviation: nM
IC50: 27
--
compound: NC(=O)CCCc1c[nH]c2c(F)cccc12
measurementTarget: LDL oxidation carried out by MPO (Homo sapiens)
unitAbbreviation: nM
IC50: 24
--
compound: ONCCCc1c[nH]c2ccc(F)cc12
measurementTarget: LDL oxidation carried out by MPO (Homo sapiens)
unitAbbreviation: nM
IC50: 21
--
compound: NCCSCCc1c[nH]c2c(F)cccc12 [Compound 43, oxalate]
measurementTarget: LDL oxidation carried out by MPO (Homo sapiens)
unitAbbreviation: nM
IC50: 6
--
compound: NCCSCCCc1c[nH]c2ccc(F)cc12 [Compound 33, oxalate]
measurementTarget: LDL oxidation carried out by MPO (Homo sapiens)
unitAbbreviation: nM
IC50: 21
--
compound: CCN(CCc1c[nH]c2ccc(F)cc12)S(C)(=O)=O
measurementTarget: LDL oxidation carried out by MPO (Homo sapiens)
unitAbbreviation: nM
IC50: 27

Incoming: For NCCSCCc1c[nH]c2ccc(F)cc12 [Compound 32, oxalate] , what is its reported IC50?
Outgoing: 8

Incoming: Can you handle `NC(=O)CCCc1c[nH]c2ccc(F)cc12` next?
Outgoing: 18

Incoming: Can you handle NCCCCc1c[nH]c2c(F)cccc12 [Compound 30, oxalate] next?
Outgoing: 21

Incoming: Can you handle `N#CSCCCc1c[nH]c2ccc(F)cc12` next?
Outgoing: 23
